tested on: OVCAR-4 ovarian; assay: NCI tumour cell line growth inhibition, 48 h
readout type: TGI

Reference set (2 entries):
COc1c(CCC[P+](c2ccccc2)(c2ccccc2)c2ccccc2)cc2c(c1OC)OCO2 :: 12.5 µM
NC(=S)N/N=C(/CC(=O)c1ccccc1)C(=O)Nc1ccc(Cl)c(Cl)c1 :: > 100 µM

--- query ---
Exercise: Provide one value: measured TGI of COc1ccccc1NC(=O)CC(=O)N1N=C(C)C(N=Nc2ccc(S(N)(=O)=O)cc2)C1=O (stereo not drawn)
Solution: > 100 µM

* * *

system: A498 renal; experiment: NCI tumour cell line growth inhibition, 48 h
readout type: TGI

O=[N+]([O-])C(=C(N1CCCCC1)N1CCCCC1)/C(Cl)=C(\Cl)Br :: 42.2 µM
NC(=O)C(=O)N/N=C1/c2ccccc2CC1C1(O)C(=O)Nc2c(Cl)cc(Cl)cc21 (stereo not given) :: > 100 µM
Cc1ccc(S(=O)(=O)N2CCSCCSCCSCCSCC2)cc1 :: > 74.2 µM

Exercise: Tell me TGI reported for O=C(O)[C@@H]1C[C@@H](O)CN1C(=O)OCc1ccccc1
Solution: > 100 µM

Exercise: Provide TGI value for the following compound: Cc1ccc(C(=O)O/N=C2/CCC/C2=C\c2ccccc2)cc1
Solution: > 100 µM
